- SYSTEM TESTED: AMP-activated protein kinase, AMPK (Homo sapiens) (UniProt P54646+O43741+P54619+Q9UGJ0+Q9Y478+Q13131+Q9UGI9)
- ASSAY PROCEDURE: AMP-dependent Kinase enzyme assay. An in vitro enzyme assay that detects ADP turnover that is directly proportional to AMPK activity. This uses naive AMPK that is activated during the assay with MK-8722
- Assay type: functional
- Parameters: scale not given: direction of the effect not stated beside the values
- APPLIED CONDITIONS: 30 µM
Items are presented alongside their recorded Percent Effect.

| COMPOUND | UNITS OF MEASURE | Percent Effect |
| --- | --- | --- |
| O=C(C1CNCCN1C(=O)CCOc1ccccc1)N1CCOCC1 (stereo not given) | % | 13 |
| CC(C)(C)C(NC(=O)CCCS(C)(=O)=O)c1ccc(F)cc1F (stereo not given) | % | 7.18 |
| CC(C)c1nc(CN2CCN(C(=O)OC(C)(C)C)C(C)C2)no1 (stereo not given) | % | 1.33 |
| Cc1cc(-c2cnc(N3CCC(O)CC3)nc2C(C)C)on1 | % | 20.1 |
| CC(C)[C@@H]1CN(C(=O)CCc2ccc(F)cc2)C[C@H]1C(=O)O | % | -1.24 |
| CNC(=O)c1ccc(C2CN(c3cc(C)nc(N)n3)CCO2)nc1 (stereo not given) | % | -3.96 |
| COc1nccc(N2CC[C@H](N3CCOCC3)[C@H](CCCO)C2)c1C#N | % | -3.46 |
| O=C(c1cnn2ccccc12)N1CCCC(OCc2ccccn2)C1 (stereo not given) | % | 14.8 |
| Cn1c(CO)nnc1SCc1c(F)cccc1Br | % | 2.62 |
| COc1ccc(NC(=O)N2CCOCC(CN(C)C)C2)c(C)c1 (stereo not given) | % | 1.75 |
| Cc1ccc(-c2nc(CN3CCOCC3)no2)cc1N1CCNC1=O | % | 7.88 |
| Cc1ccc(CNS(=O)(=O)CCCC#N)cc1F | % | 7.39 |
| CN1CCN(C(=O)C2(S(C)(=O)=O)CCCC2)Cc2ccccc21 | % | -2.88 |
| NC(=O)C1Cc2ccccc2CN1CCC(=O)N1CCc2ccccc21 (stereo not given) | % | -3.92 |
| COC(=O)N1CCCCC1C(=O)N1CCC(c2ccncc2)CC1 (stereo not given) | % | 1.07 |

###

Items are presented alongside their recorded Percent Effect.
- SYSTEM TESTED: Sialic acid-binding Ig-like lectin 9 (Homo sapiens)
- ASSAY PROCEDURE: Hs-Siglec9 ALPHAscreen SOP 20170721
- Set-up: scale not given: direction of the effect not stated beside the values
- APPLIED CONDITIONS: 10 µM

| MOLECULE | Percent Effect (%) |
| --- | --- |
| Cc1ccc(-c2nc(CCNC(=O)NC3CCN(C)CC3)co2)cc1 | -2.04 |
| COc1cc(S(=O)(=O)N2CCc3ccc(F)cc32)cc(C(=O)O)c1OC | 12.6 |
| O=C(C1CC1)N1CC[C@H](O)[C@@H]1Cc1ccccc1 | -3.5 |
| CCc1noc(C(C)N2CCC(N3CCCC3)CC2)n1 (stereo not drawn) | 8.32 |
| CC(C)(O)CN1CCN(C(=O)c2cccnc2O)CC1 | 5.77 |
| COCCN1C[C@H]2[C@@H](C1)N(C(=O)c1cccs1)CC[C@H]2OC | 1.61 |
| Cc1cc(C)n(CCC(=O)N2CCCC(n3cncn3)C2)n1 (stereo not drawn) | 6.15 |
| Cc1ccc(NC2CCN(C(=O)c3n[nH]c4ccccc34)CC2)nn1 | 0.786 |
| OC(COc1ccc(F)cc1)CN1CCC(Cn2cccn2)CC1 (stereo not drawn) | 8.44 |
| Cn1ccnc1CN1CCOCC(Cc2ccccn2)C1 (stereo not drawn) | 0.649 |
| O=C(C1CCCC1)N1CCC2(CC1)COCCN2CC1CC1 | -2.04 |
| Cc1csc(N2CCCN(C(=O)c3c(C)oc(C)c3C)CC2)n1 | 3.18 |
| CCc1nc(CC(=O)N2CCCC2Cn2cccn2)cs1 (stereo not drawn) | 6.12 |
| CCOCC1CC2(CCN(Cc3ccccn3)CC2)CO1 (stereo not drawn) | 1.88 |
| O=c1c2ccccc2nc2n1C(CSc1ccc(Cl)cc1Cl)CN2 (stereo not drawn) | -1.05 |
| Cc1noc(C2CCN(C(=O)CCc3nccs3)CC2)n1 | -8.4 |
| O=C(c1ccnnc1)N1CCC2(CC1)CC(N1CCOCC1)C2 | -2.15 |
| CCCc1cc(CNC(=O)C2CCOc3ccccc3C2)on1 (stereo not drawn) | 3.17 |

###

- Species on record: Homo sapiens
- ASSAY PROCEDURE: To identify inhibition of the IFN signalling (Jak-Stat) pathway via expression of an eGFP reporter gene under the control of an IFN-stimulated response element (ISRE) containing MxA promoter.
- Assay type: functional
- Set-up: scale not given: direction of the effect not stated beside the values
- APPLIED CONDITIONS: 30 µM
MEASURE NAME: Percent Effect (%)

| COMPOUND | VALUE MEASURED |
| --- | --- |
| COCCc1noc(CNC2CCSC2)n1 (stereo not drawn) | -4.93 |
| CCS(=O)(=O)N(C)CC(=O)Nc1ccc(Br)cn1 | 13.7 |
| COc1cccc(OC)c1C(=O)N1CCN(c2ccccc2F)CC1 | 46.4 |
| Cc1cc(CN(C)C(=O)c2ccnc(N(C)C)c2)no1 | 9.46 |
| CCOC1CCCN(C(=O)c2sccc2-n2cnnn2)C1 (stereo not drawn) | 21.5 |
| CCOCC1CC2(CCN(C(=O)c3ccccn3)CC2)CO1 (stereo not drawn) | -3.04 |
| O=C(NC[C@]1(O)CN(Cc2ccccc2F)C[C@H]1O)c1ccccn1 | 6.15 |
| CNc1nc(C2CCCN2C(C)=O)nc2c1CCN(CC1CC1)C2 (stereo not drawn) | 6.58 |
| Cc1cc(C(=O)NC2CCc3nc(C)cn3C2)[nH]n1 (stereo not drawn) | 3.16 |
| CCN1CCC2(C=C(C(=O)NC3CC3)c3ccccc32)CC1 | -10.8 |
| O=C(N1CCC(Nc2cccnn2)CC1)C1(c2ccc(F)cc2)CC1 | 10.5 |
| CC(C)(C)c1nnc(CN2CCCC(Cn3cncn3)C2)o1 (stereo not drawn) | 8 |
| Cc1nccc(CN2CC[C@H](Oc3cccc(F)c3)[C@@](C)(O)C2)n1 | 2.7 |
| O=C(C1CC1)N1CC[C@H](O)[C@@H]1Cc1ccccc1 | -8.68 |
| CN(C)CC1CN(Cc2coc(-c3cccs3)n2)CCO1 (stereo not drawn) | 15.3 |
| COCc1c(C(=O)NC2CCCC2)nnn1-c1ccc(C)cc1 | 14.6 |
| O=C(c1ccc(OCC2CC2)nc1)N1CCCC(n2cncn2)C1 (stereo not drawn) | 19.1 |
| Cc1ccc(SCC2CNc3nc4ccccc4c(=O)n32)c(C)c1 (stereo not drawn) | 29.8 |
| COc1ccc(CNC(=O)N2CCC(Cc3cnn(C)c3)C2)cc1C (stereo not drawn) | 10.9 |
| CCCc1nc(C)c(C(=O)NCCN2CCN(CC)CC2)s1 | 5.53 |
| CN(C)CC1CN(Cc2coc(-c3ccccc3Cl)n2)CCO1 (stereo not drawn) | 3.83 |
| Cc1cncc(C2CCCN(Cc3cccn3C)C2)n1 (stereo not drawn) | 6.97 |
| CCN1CCN(C(=O)NCCOc2ccc3c(c2)OCO3)CC1 | -5.27 |
| CNc1snc(C)c1C(=O)N1CCCC(n2ccnc2C(C)C)C1 (stereo not drawn) | 14.7 |
| Nc1nccc(-c2c[nH]nc2C2CCCCC2)n1 | 99.6 |
| Cc1cnn(CC2CCCCN2CCn2cncn2)c1 (stereo not drawn) | 5.08 |
| Cc1cccnc1CNCC1(O)CCCN(Cc2ccc(F)cc2)C1=O (stereo not drawn) | 5.17 |
| COc1cc(N2CCCC(c3nccn3Cc3cscn3)C2)nc(N)n1 (stereo not drawn) | 25.7 |
| CCCN1CCCn2nc(CNS(=O)(=O)c3cccc(C#N)c3)cc2C1 | 9.83 |
| O=C(c1ccnnc1)N1CCC2(CC1)CC(N1CCOCC1)C2 | 22.2 |
| Cc1ccc(NC(=O)C(C)N2CCCN(c3nccs3)CC2)c(C)c1 (stereo not drawn) | 8.08 |
| c1cnnc(N2CCCC2CNCc2nc(C3CC3)no2)c1 (stereo not drawn) | -18.5 |
| CN(C)S(=O)(=O)N1CC[C@]2(C[C@H](Oc3ncccc3F)CO2)C1 | -1.45 |
| O=C(C1CCOC1)N1CCc2ncc(CNc3ccccn3)n2CC1 (stereo not drawn) | 4.98 |
| Cc1nc(N2CCCC2)nc2c1CN(C(=O)N1CCOCC1)CC2 | 1.81 |
| CN(Cc1ccccc1)C(=O)c1nc(S(C)(=O)=O)n2ccccc12 | 5.84 |
| CC(Cn1cccn1)NC(=O)NCc1ccccn1 (stereo not drawn) | 13.9 |
| Cn1cc(CN2CCCC3(CCCN3S(C)(=O)=O)C2)cn1 (stereo not drawn) | -3.8 |
| CCc1ncc2c(n1)CN(CC(=O)Nc1nnc(C)s1)CC2 | -8.8 |
| CCCN1CCCn2nc(CNS(=O)(=O)c3ccc(C)cc3)cc2C1 | 5.89 |
| COC(=O)NCc1cc2n(n1)CCCN(C(C)=O)C2 | -0.185 |
| CC(C)(C)C(O)CN1CCN(C(=O)c2cccc3[nH]ncc23)CC1 (stereo not drawn) | 1.83 |
| CNC(=O)[C@@H]1C[C@H]2CN(Cc3nccs3)C[C@H]2N1C | 11.3 |
